Biological target: xanthine oxidase (XO)
Assay: in vitro xanthine oxidase (XO) inhibiting action
Settings: 4 U/L XO in PBS pH 7.5, xanthine substrate, absorbance at 295 nm after 30 minutes; mean±standard error
Protocol: The in vitro xanthine oxidase (XO) inhibiting action was studied on 210 kinds of cyclic dipeptides, linear dipeptides Tyr-Gly and Gly-Tyr, and an amino acid Tyr. […] Thereafter, 20 μL of a 250 μM xanthine solution previously dissolved in the PBS was added thereto, and the absorbance after 30 minutes was measured using a spectrophotometer (Synegy HT, manufactured by Bio Tek). […]
MEASUREMENT_NAME: IC50 (µM)

MOLECULE: O=C1NC(Cc2ccc(O)cc2)C(=O)NC1Cc1ccc(O)cc1 (stereo not shown)
NUMBER: 29.5

(A) O=C(O)CC1NC(=O)C(Cc2ccc(O)cc2)NC1=O (stereo not shown)
(B) O=C1NC(Cc2ccc(O)cc2)C(=O)NC1Cc1ccccc1 (stereo not shown)
(C) NC(=O)CC1NC(=O)C(Cc2ccc(O)cc2)NC1=O (stereo not shown)
-- ask Please rank these molecules by IC50 in descending order. In your reply, arrange the labels in the requested order.
-- reply A, C, B
